Reference source: patent US12297203B2

tested on: JAK1/3 phosphorylation of its substrate, STAT5, at Y694; test: JAK1/3 target modulation assay (IL-2 stimulated STAT5 Y694 phosphorylation in PBMC); assay type: cell-based; conditions: Homo sapiens, PBMC, Primary human peripheral blood mononuclear cells, IL-2 25 ng/mL; read-out: IL2-STAT5 Inh. IC50
pIC50: −log10 of the molar value.
property_measured: pIC50

Some molecules with known pIC50 results, for comparison:
Ask: For C=CC(=O)N1C[C@@H](Nc2ncnc3[nH]cc([C@H]4CC4(F)F)c23)CC[C@H]1CC (single isomer, unassigned) [Example 69] , what is its reported pIC50?
Reply: < 6.00

Ask: Bench note: what pIC50 did C=CC(=O)N1C[C@H](Nc2ncnc3[nH]cc([C@@H]4[C@@H](C)C4(F)F)c23)CC[C@@H]1C (single isomer, unassigned) [Example 52] show?
Reply: 6.00 to 7.00

Let us examine a further case.
Ask: What does the data say about its pIC50? Entry: C=CC(=O)N1C[C@H](Nc2ncnc3[nH]cc(C(=O)OCC)c23)CC[C@@H]1C [Example 2]
Reply: 6.00 to 7.00
